Protein target, amino acids: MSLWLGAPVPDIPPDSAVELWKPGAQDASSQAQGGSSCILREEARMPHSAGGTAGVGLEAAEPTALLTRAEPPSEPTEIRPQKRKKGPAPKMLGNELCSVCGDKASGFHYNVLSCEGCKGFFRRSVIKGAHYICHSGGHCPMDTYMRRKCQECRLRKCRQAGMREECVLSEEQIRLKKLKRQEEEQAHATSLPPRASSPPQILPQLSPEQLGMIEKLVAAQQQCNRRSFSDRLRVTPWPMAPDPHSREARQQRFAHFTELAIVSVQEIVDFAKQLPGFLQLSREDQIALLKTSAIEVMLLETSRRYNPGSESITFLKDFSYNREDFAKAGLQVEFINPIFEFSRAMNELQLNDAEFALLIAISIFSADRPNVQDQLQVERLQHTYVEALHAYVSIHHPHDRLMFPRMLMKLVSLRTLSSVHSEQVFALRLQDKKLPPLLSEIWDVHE
pIC50: −log10 of the molar value.
parameterMeasured: pIC50

Here is how some compounds turned out for pIC50.
O=C(O)c1cccc(Oc2cccc(-c3c(Cc4ccccc4)cnc4c(C(F)(F)F)cccc34)c2)c1 [Example 126]; 6.62
CC(C)C[C@H](NC(=O)c1ccc(COc2cccc(-c3c(Cc4ccccc4)cnc4c(C(F)(F)F)cccc34)c2)cc1)C(=O)O [Example 81]; 6.18
O=C(O)CC1CCc2c(OCc3cccc(-c4c(Cc5ccccc5)cnc5c(C(F)(F)F)cccc45)c3)cccc21 (stereo not shown) [Example 38]; 7.29

1: Cc1cnc2c(C(F)(F)F)cccc2c1-c1cccc(COc2cccc3c(CC(=O)O)cccc23)c1 [Example 9]
2: Cc1cc(NCc2ccsc2-c2c(Cc3ccccc3)cnc3c(C(F)(F)F)cccc23)c(C)cc1CC(=O)O [Example 32]
### Prompt Hi, I'm comparing 1 with 2 and wondering which one has the bigger number for pIC50. Any idea? Your choice should be expressed through its label.
### Response 1

a: COc1cc(C(=O)O)ccc1OCc1cccc(-c2c(Cc3ccccc3)cnc3c(C(F)(F)F)cccc23)c1 [Example 45]
b: O=C(O)c1ccc(COc2cccc(-c3c(Cc4ccccc4)cnc4c(C(F)(F)F)cccc34)c2)cc1 [Example 100]
### Prompt Lower value of pIC50 belongs to which: a or b ? Give the chosen item's label as your response.
### Response a

---

Target chain: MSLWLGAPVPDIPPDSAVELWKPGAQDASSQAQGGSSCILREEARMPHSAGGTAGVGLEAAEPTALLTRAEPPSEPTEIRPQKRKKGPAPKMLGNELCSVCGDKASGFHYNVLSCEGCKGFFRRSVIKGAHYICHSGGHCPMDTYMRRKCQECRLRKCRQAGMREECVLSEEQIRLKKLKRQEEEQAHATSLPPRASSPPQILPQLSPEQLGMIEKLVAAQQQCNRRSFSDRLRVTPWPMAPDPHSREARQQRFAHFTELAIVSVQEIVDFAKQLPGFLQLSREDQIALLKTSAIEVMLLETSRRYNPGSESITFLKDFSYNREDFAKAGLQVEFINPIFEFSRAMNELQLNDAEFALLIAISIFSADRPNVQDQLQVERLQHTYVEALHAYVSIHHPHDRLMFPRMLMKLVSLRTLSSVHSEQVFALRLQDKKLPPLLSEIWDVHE
parameterMeasured: IC50 (nM)

COc1cccc(NCc2cccc(-c3c(Cc4ccccc4)cnc4c(C(F)(F)F)cccc34)c2)c1C(=O)O; 1810

1: O=C(O)c1cc(Cl)c(OCc2cccc(-c3c(Cc4ccccc4)cnc4c(C(F)(F)F)cccc34)c2)c(Cl)c1
2: O=C(O)Cc1cccc2cc(OCc3cccc(-c4ccnc5c(C(F)(F)F)cccc45)c3)ccc12
### Prompt Compare 1 and 2 and name the one whose reported IC50 is smaller. Reply with the label of the item you choose.
### Response 1
